target: Fyn (UniProt P06241); assay: phosphorylation enrichment, bacterial display (enrichment ratio); higher = better substrate or ligand; peptides without Tyr show the background
Sequence (P06241 whole entry, looked up): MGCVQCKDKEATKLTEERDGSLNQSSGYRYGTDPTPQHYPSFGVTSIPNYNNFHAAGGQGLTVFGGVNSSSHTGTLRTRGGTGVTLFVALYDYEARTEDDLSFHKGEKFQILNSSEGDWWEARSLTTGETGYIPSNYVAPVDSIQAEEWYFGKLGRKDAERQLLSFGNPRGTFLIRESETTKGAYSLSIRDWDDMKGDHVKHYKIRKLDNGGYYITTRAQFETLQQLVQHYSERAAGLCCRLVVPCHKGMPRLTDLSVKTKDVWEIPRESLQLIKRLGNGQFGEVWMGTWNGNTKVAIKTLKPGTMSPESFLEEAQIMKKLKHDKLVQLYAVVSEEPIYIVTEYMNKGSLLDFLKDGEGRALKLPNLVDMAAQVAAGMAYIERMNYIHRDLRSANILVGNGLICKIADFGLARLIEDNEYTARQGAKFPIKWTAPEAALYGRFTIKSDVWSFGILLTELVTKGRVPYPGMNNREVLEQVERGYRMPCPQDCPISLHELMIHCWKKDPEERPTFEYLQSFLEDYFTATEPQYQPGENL
Readout type: phosphorylation enrichment

> print(dat)
                            chain           test.target  value
1  EYITRYIDSLK [PSMA7_Y110_A112D]  Fyn (UniProt P06241)  0.504
2   CTTIHYTYMCN [TP53_Y234_N235T]  Fyn (UniProt P06241)  0.496
3  KRIETYFSKNF [PLP1_Y50_L46R_YF]  Fyn (UniProt P06241)  0.499

====

system: AncSZ; assay: phosphorylation enrichment, bacterial display (enrichment ratio); higher = better substrate or ligand; peptides without Tyr show the background
Measured phosphorylation enrichment values are reported for all entries that follow.
Readout type: phosphorylation enrichment

> print(dat)
                                  chain                readout.type  value
 1           LRNRVYEVPVE [SLC26A3_Y756]  phosphorylation enrichment   1.65
 2    KAIMTYVPSFF [ACTN4_Y260_S262P_YF]  phosphorylation enrichment   0.72
 3        GGFNNYGFGND [HNRNPH3_Y159_YF]  phosphorylation enrichment  0.654
 4             MKGDYYRYLAE [YWHAG_Y131]  phosphorylation enrichment   1.07
 5       KPPFSYNALIR [FOXG1_Y186_M191R]  phosphorylation enrichment  0.695
 6          YLEKYYKFGCR [NNMT_Y25_S29C]  phosphorylation enrichment   1.18
 7             SLEKSYELPDG [ACTA1_Y242]  phosphorylation enrichment   1.06
 8          ESMLRYEVFGG [STOX1_Y607_YF]  phosphorylation enrichment   1.12
 9  FCGFSYDDIPD [TMEM230_Y112_R108C_YF]  phosphorylation enrichment   1.46
10         HGEAVYSRDCV [XPC_Y676_R671H]  phosphorylation enrichment  0.697
11       LITTLYISFLG [KCNQ1_Y267_G269S]  phosphorylation enrichment   1.47
12           GTPVMYTYDEY [COL10A1_Y623]  phosphorylation enrichment   1.26
13        ESMNIYLQTSP [NAT1_Y208_T207I]  phosphorylation enrichment   1.21
14              AKGMKYLASKK [MET_Y1194]  phosphorylation enrichment  0.482
15     AALVQYFMEHH [PTPN11_Y80_E76A_YF]  phosphorylation enrichment  0.798
16     LLRFLYFFVCS [SLC34A2_Y109_G106R]  phosphorylation enrichment  0.948
17    RSAGKDDVFLI [MECP2_Y120_Y120D_YF]  phosphorylation enrichment  0.842
18          GEPLSHTRFSL [TFRC_Y20_Y20H]  phosphorylation enrichment  0.599
19   PTEAQYRFIFM [PTPN11_Y511_Q506P_YF]  phosphorylation enrichment    1.6
20              LVGTPYWMAPE [PAK5_Y608]  phosphorylation enrichment   0.91
21        TGNPAYRSFSN [IL4R_Y497_A492T]  phosphorylation enrichment  0.595
22        SVEVPYEPPEV [TP53_Y220_V217E]  phosphorylation enrichment   1.44
23        HLTLVYGGIFL [FBP1_Y259_R255L]  phosphorylation enrichment   1.61
24       GKGGSYSKAES [HLA-E_Y341_W346S]  phosphorylation enrichment  0.485
25           NLDRFYQQVTK [SEC16A_Y1041]  phosphorylation enrichment  0.734
26       TIMTNYNPNYC [ALK_Y1092_D1091N]  phosphorylation enrichment  0.758
27     CTNIHYNFMCN [TP53_Y234_T231N_YF]  phosphorylation enrichment    0.8
28           GPSTPYTKSKR [SMARCC2_Y324]  phosphorylation enrichment  0.408
29              EVKAQYEDIAQ [KRT1_Y358]  phosphorylation enrichment   1.22
30      LHSDHYSPSGR [TMPRSS12_Y23_Y19H]  phosphorylation enrichment   1.79
31            WAFNLYDINKD [KCNIP3_Y174]  phosphorylation enrichment   1.43
32       ILGTFYETGSI [PAX2_Y73_R71T_YF]  phosphorylation enrichment  0.773
33       DLVHPYVHKIL [SF3B1_Y570_R568H]  phosphorylation enrichment  0.717
34        SVVVPYEPPGV [TP53_Y220_E224G]  phosphorylation enrichment  0.883
35     INMKEYCKKDF [NTN1_Y490_K489E_YF]  phosphorylation enrichment  0.877
36      CNNFICGGCRG [SPINT2_Y163_Y163C]  phosphorylation enrichment  0.963
37     TTIVSYRASQP [MKI67_Y1737_K1734I]  phosphorylation enrichment  0.591
38           SNMPTYSGHFT [GRIN2A_Y1224]  phosphorylation enrichment  0.529
39       MKGDYYRSLAE [YWHAG_Y131_Y133S]  phosphorylation enrichment    1.1
40            KKLEVYQSIAD [MYBPC3_Y548]  phosphorylation enrichment  0.878
41      NVTRKYSRQIL [MAP3K2_Y463_T464S]  phosphorylation enrichment  0.425
42        REAAAYPHGRL [AGXT_Y297_L298P]  phosphorylation enrichment  0.516
43    EEGNPYFSGAR [MCCC2_Y520_S523G_YF]  phosphorylation enrichment  0.938
44  GGFNNYGFGSD [HNRNPH3_Y159_N163S_YF]  phosphorylation enrichment  0.656
45        KEEEDYREENN [BMS1_Y651_K652R]  phosphorylation enrichment    1.3
46       MTRDIYRASYY [ALK_Y1278_A1274T]  phosphorylation enrichment  0.725

====

target: Grb2 SH2 (UniProt P62993); assay: SH2 binding enrichment of the phosphorylated peptide, bacterial display (enrichment ratio); higher = better substrate or ligand; peptides without Tyr show the background
Sequence (P62993 whole entry, looked up): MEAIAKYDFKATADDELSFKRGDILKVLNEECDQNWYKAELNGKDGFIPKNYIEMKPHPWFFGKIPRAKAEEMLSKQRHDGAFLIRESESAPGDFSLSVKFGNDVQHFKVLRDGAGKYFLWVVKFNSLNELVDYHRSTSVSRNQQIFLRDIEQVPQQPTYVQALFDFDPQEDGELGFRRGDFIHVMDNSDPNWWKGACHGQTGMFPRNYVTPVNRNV
Readout type: SH2 binding enrichment

> print(dat)
                                  chain  value
 1             RESSGYLRLAF [MEP1A_Y481]   1.18
 2           SENAFYLSPDI [COL6A3_Y2827]  0.739
 3       AIGFEYSEINI [SIGLEC12_Y588_YF]  0.632
 4        MEIHAYLKLLE [LMNA_Y376_R377L]  0.842
 5        QNVADYMRCLM [RPL5_Y207_Y210C]  0.912
 6           NLDRFYQQVTK [SEC16A_Y1041]  0.862
 7       YRTGHYLCNAC [GATA1_Y223_D218Y]   1.01
 8    GIVKAYFVHAR [AIPL1_Y267_R270H_YF]    1.3
 9             SEDANYKRVSC [TTC3_Y1288]   1.15
10          SGSWSYNTSTE [SELE_Y24_A21S]  0.826
11              YRDALYKFMVD [PHEX_Y250]  0.846
12         ILTLKYPIKHG [ACTA1_Y71_E74K]   1.12
13           IGNGYYFRVFS [MYBPC3_Y1136]  0.977
14               PELINYHQHNS [BTK_Y361]      1
15         PELINCHQHNS [BTK_Y361_Y361C]   1.01
16             GSSEDYLHMVH [NIPBL_Y247]  0.743
17    LQLLGDRPVFS [CHST6_Y358_Y358D_YF]  0.749
18         RAILDYIASKY [GSTA3_Y74_N73D]   1.06
19       QFLMKYVRSAS [ABCD1_Y337_W339R]  0.517
20    AQVDTYCRHNY [HLA-DRB1_Y107_A103Q]   1.05
21     VSSSDYFSFVL [USP24_Y2138_Y2134S]  0.715
22       YKPGFYNLKEK [LAMA1_Y490_C485Y]   1.27
23          GAPATYEGDAR [CACNA1A_Y1013]  0.893
24       VDEVLYEDSSA [MTHFS_Y197_T202A]  0.834
25       EASEQHLTKAS [NRCAM_Y739_Y739H]  0.903
26          GNHVSYYQSDG [CACNA1C_Y1757]  0.806
27          LIHLHYIRRDY [BBS4_Y43_K46R]   1.52
28              YAFQLYDLDRD [CHP2_Y123]  0.879
29         TLAHKYHGGGG [HBB_Y146_A141T]  0.567
30    MDDKEYFSVHN [MET_Y1234_Y1230D_YF]  0.808
31          GEPLSHTRFSL [TFRC_Y20_Y20H]  0.866
32  AESPEHVHMFT [FAM111A_Y511_Y511H_YF]  0.786
33       LNPLFYSLRNK [OR5R1_Y290_I289F]    1.5
34              CPEARYNRSPI [PTAR1_Y42]  0.618
35        HFPFQCHRQLF [F12_Y53_Y53C_YF]   1.23
36  FCGFSYDDIPD [TMEM230_Y112_R108C_YF]   1.11
